// provenance: PubChem BioAssay AID1159580

assayOverview: chemical genetic growth profiling, strain panel (AID 1159580);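 note: tested at 20 µM; growth read once vehicle control cultures reached saturation at 30 °C; 1 = growth at the plate median or of vehicle wells; lower values mean less growth of the strain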
measurementParameters: S. cerevisiae deletion strains, growth OD, locus YLR370C, strain arc18, active compounds read low
The whole screen tested about 5,500 compounds, of which about 2,000 (36%) were called active. Not shown: some 18% with an inconclusive outcome. Some of the results follow.
molecules and their reported normalized growth
Returns: the value as a bare number; no unit string appended.

A selection of reference data follows.
molecule | normalized growth
CC(=O)O[C@H]1CC[C@@]2(C)C(=CCC3C2CC[C@@]2(C)C3CC[C@@H]2C(C)CCCC(C)C)C1 (stereo partly specified) | 0.991
COc1ccc(CN(CCN(C)C)c2ncccn2)cc1 | 1.03
CCn1cc(C(=O)O)c(=O)c2cnc(N3CCCC3)nc21 | 0.981
Cc1cccc(CN2CCN(C(c3ccccc3)c3ccc(Cl)cc3)CC2)c1 (stereo unspecified) | 0.853
CCn1cc(C(=O)O)c(=O)c2ccc(C)nc21 | 0.943
CC(=O)O[C@H]1CC[C@@]2(C)C(=CCC3C2CC[C@]2(C)C(=O)CCC32)C1 (stereo partly specified) | 1.01
CCn1cc(C(=O)O)c(=O)c2cnc(N3CCNCC3)nc21 | 1.02
O=C(NC(Cc1cc(=O)[nH]c2ccccc12)C(=O)O)c1ccc(Cl)cc1 (stereo unspecified) | 1

Data point: O=C(O)CCCCC1SCC2NC(=O)NC21 (stereo unspecified) ; normalized growth = 0.998

Data point: CC12CCC3C(CC=C4CC(O)CCC43C)C1CCC2=O (stereo unspecified) ; normalized growth = 0.993

Data point: CCn1cc(C(=O)O)c(=O)c2cc3c(cc21)OCO3 ; normalized growth = 0.964

---

assayOverview: chemical genetic growth profiling, strain panel (AID 1159580);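 note: tested at 20 µM; growth read once vehicle control cultures reached saturation at 30 °C; 1 = growth at the plate median or of vehicle wells; lower values mean less growth of the strain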
measurementParameters: S. cerevisiae deletion strains, growth OD, locus YNL067W, strain RPL9B
In all, about 5,500 compounds went through this assay and about 2,000 (36%) were called active. About 18% were inconclusive and are not listed. Rule as the data show it: active = normalized growth mostly below about 0.91 (no sharp cut-off); inconclusive = no clear call, values can overlap the other calls; inactive = mostly above about 0.92. The list shows a part of the results.
Write down the outcome that applies. Available outcomes: active, inactive

Here are 5 compounds together with their reported answers.
compound | className
CN=C1CN(O)C(c2ccccc2)=c2cc(Cl)ccc2=N1 | inactive
CS(=O)(=O)OCCCCOS(C)(=O)=O | inactive
COc1cc(/C=C/C(=O)O)cc(OC)c1OC | inactive
NC(=O)c1cc[n+](CC2=C(C(=O)O)N3C(=O)C(NC(=O)C(c4ccccc4)S(=O)(=O)[O-])C3SC2)cc1 (stereo unspecified) | inactive
C[C@@]12C(=O)OC(=O)[C@]1(C)C1CCC2O1 | active

[ask] Dear all, I need the recorded test outcome for Nc1ccc(S(=O)(=O)Nc2nccs2)cc1 , thank you.
[reply] inactive

---

assayOverview: chemical genetic growth profiling, strain panel (AID 1159580);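 note: tested at 20 µM; growth read once vehicle control cultures reached saturation at 30 °C; 1 = growth at the plate median or of vehicle wells; lower values mean less growth of the strain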
measurementParameters: S. cerevisiae deletion strains, growth OD, locus YDL134C, strain PPH21, active compounds read low
Hit rate of the full screen: of about 5,500 compounds, about 2,000 (36%) were called active. Inconclusive results (about 18%) are left out. The list shows a part of the results.
compounds and their reported normalized growth

compound | normalized growth
CC1(C)C2CC(=O)O[C@@]3(C)C4=CC(=O)O[C@@H](c5ccoc5)[C@]4(C)CCC3[C@@]2(C)C=C[C@H]1O (stereo not given in full) | 1.01 (inactive)

# next compound below
Data point: CCCCC(CC)CN=C(N)NC(N)=NCCCCCCN=C(N)NC(N)=NCC(CC)CCCC (stereo not given) ; normalized growth = 0.0565 (active)
